Assign growth to each entry below.
- Tested on: NCI-H322M lung
- Protocol Description: NCI-60 one-dose screen, 48 h (100 = growth as untreated, 0 = no growth, -100 = all killed)
- Test Parameters: 10 µM unless noted
The panel holds about 83,000 compounds, 20% with a hit somewhere; the sample as a whole holds those more often.
Express your answer in %, writing the number without its unit.

Sample CC1(C)N(Nc2ccccc2)C(=O)C2CCCN21 (stereo unspecified) ; growth observed: 87.4

For reference, reported growth for "CC[C@H](C)[C@H](NC(=O)CN(C)C)C(=O)N(C)[C@H](C[C@@H](OC(C)=O)c1nc(C(=O)NC23CC(C(=O)OC)(C2)C3)cs1)C(C)C" stands at 39.2

For record "O=C(NC(Cl)=C(Cl)Cl)P(=O)(c1ccccc1)c1ccccc1" the listed growth is 108

Short answer for "O=[N+]([O-])c1cc(Br)c(O)c(Br)c1" : growth was 105

// growth lookup, molecule = O=S(OO)c1cc(Cl)c(O)c(Cl)c1 (stereo unspecified) , result: 97.7

The molecule listed as "C/C(=C\c1ccn(-c2ccc(N)cc2F)n1)[C@@H]1C[C@@H]2O[C@]2(C)CCC[C@H](C)[C@H](O)[C@@H](C)C(=O)C(C)(C)[C@@H](O)CC(=O)O1" shows growth equal to 15.5

The molecule identified as "Nc1c(Cl)c(Cl)nc(C(=O)O)c1Cl" registered its growth at 80.8

Item: "c1ccc2c(c1)sc1ccccc12" | growth: 95.7

Value of measured growth for the entry "NC(=O)Oc1cc(OC(N)=O)cc(N(CCCl)CCCl)c1" : 111

For reference, reported growth for "Nc1nc(=S)nc(N)[nH]1" stands at 102

The molecule identified as "NC(N)=NC(N)=Nc1ccc(Cl)cc1" registered its growth at 109

====

- Tested on: HOP-62 NSCLC
- Protocol Description: NCI-60 one-dose screen, 48 h
- Test Parameters: 10 µM unless noted
The panel holds about 83,000 compounds, 20% with a hit somewhere; the sample as a whole holds those more often. Calls of active or inactive are those of the source. How the source made its calls: active means growth percent below 10; inactive means the rest.
Choose one outcome from this list and give only that: active, inactive

// query Which outcome did this test record for the molecule "COc1cc(/C=C\[N+](=O)[O-])ccc1OCc1ccccc1" ?
// result inactive

// query Could you please tell me the result logged for "O=NN1CCCCC1" in this assay?
// result inactive

// query Could you please tell me the result logged for "Oc1ccc(O)c(Cl)c1" in this assay?
// result inactive

// query What did the test return for "O=[N+]([O-])c1ccc(OCc2ccc(S(=O)(=O)F)c(Cl)c2)c(Cl)c1" ?
// result inactive

// query Record lookup: outcome of this test for "CCCCOC(N)=O" ?
// result inactive

// query Hi, do you know how "C[C@]12CC[C@H]3[C@@H](CC=C4c5nc(N)sc5CC[C@@]43C)[C@@H]1CC[C@@H]2O" came out in this test?
// result inactive

// query Record request — test call for "Cc1nc2ccccc2c(=O)n1-c1ccccc1F"
// result inactive

// query Record request — test call for "N[C@@H](CCC(=O)CCl)C(=O)O"
// result inactive

// query Status in this test for "COc1ccn(C)c(=O)c1C#N" ?
// result inactive

// query Test call for this molecule, please: "CCN(CC)CCn1c(=O)n(C)c2ccccc21"
// result inactive

// query How did this test come out for CCC(=O)C(CC(C)[N+](C)(C)C)(c1ccccc1)c1ccccc1 (centres undefined) ?
// result inactive

// query Kindly provide the recorded test outcome for the following molecule: "Cn1cc(C(=O)C[n+]2ccccc2)c2ccccc21"
// result inactive

// query What did this assay record as the result for CCCCCCCCCCCCCCCCCC1OCC(COC(=O)O[C@@H](C(=O)O[C@H]2C[C@@]3(O)[C@@H](OC(=O)c4ccccc4)[C@@H]4[C@]5(OC(C)=O)CO[C@@H]5C[C@H](O)[C@@]4(C)C(=O)[C@H](OC(C)=O)C(=C2C)C3(C)C)[C@@H](NC(=O)c2ccccc2)c2ccccc2)O1 (some centres undefined) ?
// result inactive

// query # outcome recorded in this test, key = "Cc1ccc(C(=O)O[C@H](C(=O)O)[C@H](OC(=O)c2ccc(C)cc2)C(=O)O)cc1"
// result inactive

// query Assay outcome for "C=C[Se]CC(=O)/C=C/c1ccccc1" : what was it?
// result inactive

// query Recorded test outcome, item "CCOP(=O)(OCC)C(=O)N(CC)CC"
// result inactive

// query Returns: the outcome recorded for "C#COc1cccc(Nc2ncnc3cc(NC(=O)CF)ccc23)c1" in this assay.
// result inactive

// query Fill in: this test's call for "Nc1cccnc1" is ___
// result inactive

// query Please indicate how the test categorized "COc1cc(C=C2C(=O)NC(=O)NC2=O)ccc1O" .
// result inactive

// query Hi, do you know how "CN1[C@@H](CC(=O)c2ccccc2)CCC[C@H]1CC(=O)c1ccccc1" came out in this test?
// result inactive

// query GET /call?item= "CCCCS(=O)(=O)Cl" returns the recorded outcome of this test.
// result inactive

// query // param item: "NC(N)=NC(N)=Nc1ccc(Cl)cc1" ; yields the recorded call
// result inactive

// query Dear colleague, could you share the recorded outcome for "Cc1ccc(P(=O)(O)O)cc1" when you have a moment?
// result inactive

// query Each molecule tested received a call. Report the one for COc1ccc2c(c1)C1(C)CCN(C)CC(C1)C2O (centres undefined) .
// result inactive

// query Which result was noted for this molecule in the test: "Cc1cc[c-]cc1.Fc1c[c-]c(-c2ccccn2)c(F)c1.N#CCC[PH+](CCC#N)c1ccccc1.[Pt+2]"
// result inactive

// query Record request — test call for "C[C@]12CC[C@H]3[C@@H](C[C@@H]4SC(Nc5cccc(F)c5)=N[C@@]45CC(=O)CC[C@]35C)[C@@H]1CCC2=O"
// result inactive

// query For this molecule, state the assay outcome: "CO[C@H]1[C@H](O[C@@H]2C[C@@H]3C/C=C/C(=O)O[C@@H](CO)C[C@H](O)[C@@H]4C[C@H](C)[C@H](C/C=C\C=C\[C@H](C)C[C@H](C2)O3)O4)O[C@@H](C)[C@H](O)[C@H]1O"
// result inactive

// query Record request — test call for "CC(=O)Nc1nc2c(s1)C1=CC[C@H]3[C@@H]4CC[C@H](OC(C)=O)[C@@]4(C)CC[C@@H]3[C@@]1(C)CC2"
// result inactive

// query Write down the call the test reported for this molecule. Item: "O=c1[nH]c(=O)[nH]c(=O)[nH]1"
// result inactive

// query Hi, sorry to bother you, what did the test record for "N#CC(C#N)=Cc1cccc(F)c1" ?
// result inactive

// query Outcome logged for "CC[C@H](C)[C@H](NC(=O)CN(C)C)C(=O)N(C)[C@H](C[C@@H](OC(C)=O)c1nc(C(=O)NC23CC(C(=O)OC)(C2)C3)cs1)C(C)C" in this assay:
// result inactive

// query Query: recorded result category for "Cc1cc(Br)c([N+](=O)[O-])cc1[N+](=O)[O-]" in this test
// result inactive

// query Hi, sorry to bother you, what did the test record for COc1ccc(C(C#N)C(C)=O)cc1 (centres undefined) ?
// result inactive

// query Query: recorded result category for "Cc1cc(N)ccc1N" in this test
// result inactive

// query Recorded call for "N#CC(NC(=O)CCl)=C(Cl)Cl" ?
// result inactive

// query Could you please tell me the result logged for "C[C@]12CCc3sc(Nc4ccc(OC(F)(F)F)cc4)nc3C1=CC[C@@H]1[C@@H]2CC[C@]2(C)C(=O)CC[C@@H]12" in this assay?
// result inactive

// query Record lookup: outcome of this test for "O=[N+]([O-])c1ccc2scc3c4ccccc4nc-3c2c1" ?
// result active

// query # outcome recorded in this test, key = "COC(=O)[C@@H](C)C[C@H](Cc1ccccc1)NC(=O)c1cccc([C@@H](C[C@H](C(C)C)N(C)C(=O)[C@@H](NC(=O)[C@H]2CCCCN2C)C2CC2)OC(C)=O)n1"
// result active

// query Short answer needed: outcome of this test for N#CC(N)c1ccccc1 (centres undefined) ?
// result inactive

// query What did this assay record as the result for "COC(=O)CCP(CCC(=O)OC)c1ccccc1" ?
// result inactive

// query Test call for this molecule, please: "CN(C)c1ccc(C=C2C(=O)NC(=O)NC2=O)cc1"
// result inactive

// query Each molecule tested received a call. Report the one for C=CCOC(=O)C(Br)CC (centres undefined) .
// result inactive

// query Answer briefly: the call reported for COc1cc(C2C3=C(CCCC3=O)N(CCO)c3cc4c(cc32)CCC4)cc(OC)c1OC (centres undefined) in this assay.
// result inactive

// query Record request — test call for "CCCn1cc2c3c(cccc31)[C@H]1C[C@@H](C)CN(C)[C@@H]1C2"
// result inactive
